Documented Potency across a set of compounds
experimental_system: Polyunsaturated fatty acid lipoxygenase ALOX15 (Homo sapiens) (UniProt P16050)
Sequence (P16050 whole entry, looked up): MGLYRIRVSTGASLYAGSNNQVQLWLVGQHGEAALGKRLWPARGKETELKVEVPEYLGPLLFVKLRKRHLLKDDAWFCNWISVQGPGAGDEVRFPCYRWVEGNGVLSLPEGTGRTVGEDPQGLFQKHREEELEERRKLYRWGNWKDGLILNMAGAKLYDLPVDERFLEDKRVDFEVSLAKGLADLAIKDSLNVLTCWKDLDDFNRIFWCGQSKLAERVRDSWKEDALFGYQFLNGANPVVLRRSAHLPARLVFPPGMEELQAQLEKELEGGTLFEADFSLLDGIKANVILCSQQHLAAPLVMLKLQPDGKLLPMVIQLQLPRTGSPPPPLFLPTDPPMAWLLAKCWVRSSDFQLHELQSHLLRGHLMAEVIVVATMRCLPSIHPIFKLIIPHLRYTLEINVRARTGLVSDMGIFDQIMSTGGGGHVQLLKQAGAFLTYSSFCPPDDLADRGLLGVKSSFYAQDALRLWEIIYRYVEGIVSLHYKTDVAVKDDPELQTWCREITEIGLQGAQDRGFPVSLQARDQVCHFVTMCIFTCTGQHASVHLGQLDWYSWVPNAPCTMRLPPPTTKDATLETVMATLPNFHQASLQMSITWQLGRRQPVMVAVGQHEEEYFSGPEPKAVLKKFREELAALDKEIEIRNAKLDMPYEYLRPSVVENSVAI
measurement_notes: Confirmation qHTS Assay for Inhibitors of 15-hLO (15-human lipoxygenase)
condition_info: purified enzyme, xylenol orange hydroperoxide absorbance
Results filed as inconclusive are left out. Active and inactive are the calls of the source. The call rests on the fitted dose curve; in most records, active means well fitted inhibition curve with a large enough effect; inconclusive means small, poorly fitted or top-dose-only effect; inactive means no such curve, though single readings can be large or run the other way.

compound: COC(=O)c1ccc(C(=S)N2CCOCC2)cc1
recorded_endpoint: Potency
value_measured: 15.8 µM (active)

compound: COc1ccccc1CNc1ncncc1-c1ccoc1
recorded_endpoint: Potency
value_measured: 11.2 µM (active)

compound: CCOC(=O)c1c(NC(=O)CN2CCOCC2)sc2c1CCCC2
recorded_endpoint: Potency
value_measured: 31.6 µM (active)

Request: For "Oc1ccc2ccccc2c1CNc1cnc2ccccc2c1" , write its Potency.
Response: 14.1 µM (active)

Request: For "COc1cccc(-c2nccc(NCc3ccccc3OC)n2)c1" , write its Potency.
Response: 11.2 µM (active)

Request: For "Cc1ccc(-c2ccc(/C=C3\C(=O)ON=C3c3ccccc3)o2)c([N+](=O)[O-])c1" , write its Potency.
Response: 2.51 µM (active)

Request: For "Cc1ccc(OCC(=O)Nc2ccc(N3CCCC3)cc2)cc1C" , write its Potency.
Response: 15.8 µM (active)

====

experimental_system: Polyunsaturated fatty acid lipoxygenase ALOX15 (Homo sapiens) (UniProt P16050)
measurement_notes: Confirmation qHTS Assay for Inhibitors of 15-hLO (15-human lipoxygenase)
condition_info: purified enzyme, xylenol orange hydroperoxide absorbance; hits give low values
Results filed as inconclusive are left out.
Could you mark each record 1.0 if its max response falls strictly under -20%, and 0.0 if it equals or exceeds it?

Record excerpt, results attached:
molecule: CN1CCN(C(c2cccnc2)c2ccc3cccnc3c2O)CC1 (stereo unspecified)
discrete_label: 1.0

molecule: COC(=O)c1ccc2c(c1)C(=O)N(C1CCCCC1)C2=O
discrete_label: 0.0

molecule: Cc1c(N/C=C/C(=O)c2cccs2)c(=O)n(-c2ccccc2)n1C
discrete_label: 1.0

molecule: COc1cccc(-c2nc(NC3CCNCC3)c3ccccc3n2)c1
discrete_label: 0.0

molecule: Clc1ccc(-c2nnc(C3CCCCC3)o2)cc1
discrete_label: 0.0

Request: # check: max response < -20% for "O=C(Nc1nnc(-c2ccccc2)o1)c1ccc(Cl)cc1"
Response: 0.0

Request: # check: max response < -20% for "COc1ccc(OC)c(NC(=O)NC2(C(F)(F)F)Oc3ccccc3O2)c1"
Response: 0.0

Request: # check: max response < -20% for "Cc1noc(C)c1-c1nc(N(C)Cc2ccco2)c2ccccc2n1"
Response: 1.0

Request: # check: max response < -20% for "O=C(c1ccncc1)N1CCC2(CCCN(Cc3nccs3)C2)CC1"
Response: 0.0

====

experimental_system: Polyunsaturated fatty acid lipoxygenase ALOX15 (Homo sapiens) (UniProt P16050)
measurement_notes: Confirmation qHTS Assay for Inhibitors of 15-hLO (15-human lipoxygenase)
condition_info: purified enzyme, xylenol orange hydroperoxide absorbance; hits give low values
Results filed as inconclusive are left out.
Could you mark each record True if its max response falls strictly under -20%, and False if it equals or exceeds it?

Record excerpt, results attached:
compound: COCCSc1ccccc1C(=O)NCc1ccco1
discrete_label: True

compound: COc1ccc(NC(=O)CSc2nc(O)cc(=O)n2-c2ccccc2OC)cc1
discrete_label: False

compound: Cc1cc(Nc2nnnn2-c2ccccc2)n(-c2ccc(Cl)cc2)n1
discrete_label: False

compound: Clc1ccc(NNc2ccnc3cc(Cl)ccc23)cc1
discrete_label: False

compound: O=C(C1=C(O)C(=O)N(Cc2ccco2)C1c1cccnc1)c1cc2ccccc2o1 (configuration not stated)
discrete_label: False

Next up:
Request: # check: max response < -20% for "CN(C)CCC(=O)c1ccc(Cl)cc1"
Response: False
